Each entry below lists one item and its recorded IC50 value.
Biological target: 6-phosphofructo-2-kinase/fructose-2,6-bisphosphatase 3 (Homo sapiens, UniProt Q16875)
Sequence (Q16875 whole entry): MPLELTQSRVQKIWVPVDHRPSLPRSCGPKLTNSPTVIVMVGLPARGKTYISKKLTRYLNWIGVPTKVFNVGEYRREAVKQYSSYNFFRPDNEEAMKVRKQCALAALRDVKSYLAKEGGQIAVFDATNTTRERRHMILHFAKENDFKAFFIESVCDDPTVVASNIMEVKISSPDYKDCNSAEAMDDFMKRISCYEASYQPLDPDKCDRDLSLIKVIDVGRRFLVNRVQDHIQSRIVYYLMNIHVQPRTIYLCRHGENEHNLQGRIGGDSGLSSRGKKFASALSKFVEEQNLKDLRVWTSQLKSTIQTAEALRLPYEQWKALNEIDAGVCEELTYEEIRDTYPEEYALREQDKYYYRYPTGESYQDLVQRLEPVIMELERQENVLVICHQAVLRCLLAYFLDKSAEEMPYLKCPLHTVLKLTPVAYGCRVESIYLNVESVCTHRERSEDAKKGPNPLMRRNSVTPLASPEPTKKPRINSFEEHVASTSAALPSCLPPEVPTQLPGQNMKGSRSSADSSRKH
Assay: Inhibition of iPFK2 (unknown origin) assessed as reduction in enzyme-mediated fructose-6-phosphate phosphorylation by measuring ATP consumption incubated for 3 hrs by luciferase-luciferin-coupled chemiluminescence assay
recorded-metric: IC50

compound="COc1cccc(C(C)Nc2cc(-c3ccc4occ(C)c4c3)nc(C)n2)c1F (stereo unspecified)" observed="> 1 µM"
compound=COCCn1ccc2ccc(-c3cc(N[C@@H]4CCCc5ccccc54)nc(C)n3)cc21 observed="> 1 µM"
compound="COc1cc(-c2cc(NC(C)c3cccc(OCc4ccn(C)n4)c3)nc(C)n2)ccc1C (stereo unspecified)" observed="0.5 µM"
compound="Cc1cc(COc2cccc(C(C)Nc3cc(-c4cc5ccccc5n4C)nc(C)n3)c2)n(C)n1 (stereo unspecified)" observed="0.5 µM"
compound=Cc1nc(N[C@@H]2CCCc3ccccc32)cc(-c2ccc3c(ccn3C)c2)n1 observed="0.5 µM"
compound="Cc1cc(-c2cccc(C(C)Nc3cc(-c4ccc5ncsc5c4)nc(C)n3)c2)ccn1 (stereo unspecified)" observed="0.5 µM"
compound=Cc1nc(N[C@@H]2CCOc3ccccc32)cc(-c2ccc3ncsc3c2)n1 observed="> 1 µM"
compound="Cc1nc(NC(C)c2cccc(NC=O)c2)cc(-c2ccc3ncsc3c2)n1 (stereo unspecified)" observed="> 1 µM"
compound="Cc1nc(NC(C)c2cccc(NC(=O)c3ccn(C)n3)c2)cc(-c2ccc3ncsc3c2)n1 (stereo unspecified)" observed="> 1 µM"
compound=Cc1nc(NCc2cc(O)ccc2F)cc(-c2ccc3ncsc3c2)n1 observed="0.5 µM"
compound="CCOC(=O)CCCOc1cccc(C(C)Nc2cc(-c3ccc4ncsc4c3)nc(C)n2)c1 (stereo unspecified)" observed="> 1 µM"
compound=Cc1nc(NCCc2ccccn2)cc(-c2ccc3ncsc3c2)n1 observed="> 1 µM"
compound="COc1cccc(-c2cc(NC(C)c3cccc(Br)c3)nc(C)n2)c1 (stereo unspecified)" observed="> 1 µM"
compound="Cc1cc(C)c2c(c1)C(Nc1cc(-c3ccc4ncsc4c3)nc(C)n1)CCC2 (stereo unspecified)" observed="> 1 µM"
compound="CCc1coc2ccc(-c3cc(NC(C)c4cccc(O)c4)nc(C)n3)cc12 (stereo unspecified)" observed="> 1 µM"
compound=COc1cccc([C@H](C)Nc2cc(-c3ccncc3)nc(C)n2)c1 observed="> 1 µM"
compound="Cc1ccc(OCc2noc(COc3cccc(C(C)Nc4cc(-c5ccc6ncsc6c5)nc(C)n4)c3)n2)cc1 (stereo unspecified)" observed="> 1 µM"
compound=Cc1nc(NCCC2=CCCCC2)cc(-c2ccc3ncsc3c2)n1 observed="0.5 µM"
compound=CCCCCNc1cc(-c2ccc3ncsc3c2)nc(C)n1 observed="> 1 µM"
compound=COc1cccc([C@H](C)Nc2cc(-c3cc(OC)ccc3Cl)nc(C)n2)c1 observed="> 1 µM"
compound=Cc1nc(N[C@@H]2CCCc3ccccc32)cc(-c2ccc(N)cc2)n1 observed="> 1 µM"

###

Molecular target: 6-phosphofructo-2-kinase/fructose-2,6-bisphosphatase 3 (Homo sapiens, UniProt Q16875)
Assay: Inhibition of iPFK2 (unknown origin) assessed as reduction in enzyme-mediated fructose-6-phosphate phosphorylation by measuring ATP consumption incubated for 3 hrs by luciferase-luciferin-coupled chemiluminescence assay
recorded-metric: IC50 (nM)

compound="Cc1nc(NC(C)c2cccc(OCC(=O)N3CCOCC3)c2)cc(-c2ccc3ncsc3c2)n1 (stereo not given)" display_unit=nM relation_qualifier== observed=500
compound="COC(=O)COc1cccc(C(C)Nc2cc(-c3cccc(OC)c3)nc(C)n2)c1 (stereo not given)" display_unit=nM relation_qualifier=> observed=1000
compound="Cc1nc(NCC2CCCN(C(=O)C3(C)CC3)C2)cc(-c2ccc3ncsc3c2)n1 (stereo not given)" display_unit=nM relation_qualifier== observed=500
compound="Cc1nc(NC(C)c2cccc(C#N)c2)cc(-c2ccc3ncsc3c2)n1 (stereo not given)" display_unit=nM relation_qualifier== observed=500
compound=COCc1cccc(-c2cc(N[C@@H]3CCCc4ccccc43)nc(C)n2)c1 display_unit=nM relation_qualifier=> observed=1000
compound="Cc1nc(NC(C)c2cccc(OCCCN(C)C)c2)cc(-c2ccc3ncsc3c2)n1 (stereo not given)" display_unit=nM relation_qualifier== observed=500
compound="CNC(=O)COc1cccc(C(C)Nc2cc(-c3cccc(OC)c3Cl)nc(C)n2)c1 (stereo not given)" display_unit=nM relation_qualifier== observed=500
compound="COCCNS(=O)(=O)c1cccc(C(C)Nc2cc(-c3ccc4ncsc4c3)nc(C)n2)c1 (stereo not given)" display_unit=nM relation_qualifier=> observed=1000
compound="COC(=O)COc1cccc(C(C)Nc2cc(-c3ccc4ncsc4c3)nc(C)n2)c1 (stereo not given)" display_unit=nM relation_qualifier=> observed=1000
compound="COC(=O)c1coc(COc2cccc(C(C)Nc3cc(-c4ccc5ncsc5c4)nc(C)n3)c2)n1 (stereo not given)" display_unit=nM relation_qualifier=> observed=1000
compound=Cc1nc(N[C@@H](C)c2cccc(-c3ccccc3)c2)cc(-c2ccc3ncsc3c2)n1 display_unit=nM relation_qualifier=> observed=1000
compound=COC(=O)COc1ccc(F)c(CNc2cc(-c3ccc4ncsc4c3)nc(C)n2)c1 display_unit=nM relation_qualifier=> observed=1000
compound="Cc1nc(NC(C)c2cccnc2)cc(-c2ccc3ncsc3c2)n1 (stereo not given)" display_unit=nM relation_qualifier== observed=500
compound=Cc1nc(N[C@@H]2CCCc3ccccc32)cc(-c2cccc(Cl)c2)n1 display_unit=nM relation_qualifier== observed=500
compound=COc1cccc([C@H](C)Nc2cc(-c3cc(OC)c(OC)c(OC)c3)nc(C)n2)c1 display_unit=nM relation_qualifier=> observed=1000
compound="Cc1nc(NC(C)c2cccc(OCC(=O)Nc3ccccc3)c2)cc(-c2ccc3ncsc3c2)n1 (stereo not given)" display_unit=nM relation_qualifier=> observed=1000
compound="Cc1nc(NC(C)c2ccnc(Cl)c2)cc(-c2ccc3ncsc3c2)n1 (stereo not given)" display_unit=nM relation_qualifier== observed=500
compound="COc1cccc(-c2cc(NC(C)c3cccc(Br)c3)nc(C)n2)c1Cl (stereo not given)" display_unit=nM relation_qualifier== observed=500
compound="CCOC(=O)c1cncc(-c2cccc(C(C)Nc3cc(-c4ccc5ncsc5c4)nc(C)n3)c2)c1 (stereo not given)" display_unit=nM relation_qualifier=> observed=1000
compound=Cc1nc(N[C@H](C)c2cccc(O)c2)cc(-c2ccc3ncsc3c2)n1 display_unit=nM relation_qualifier=> observed=1000

The measurements presented in this section are drawn from ChEMBL document CHEMBL3727358.
